Listing of entries alongside the reported viability, T/C.
# System: 777334-354-R2-J4-PDC tumor spheroids with HUVEC/MSC, viability
# PROTOCOL DESCRIPTION: Anticancer human tumor 777334-354-R2-J4-PDC patient-derived pancreatic adenocarcinoma cell line growth inhibition [GQUAD]
# MEASUREMENT PARAMETERS: second compound 3.16 µM; first compound 1 µM; active compounds read low

Some entries whose results are on file:
MOLECULE	viability, T/C
Nc1ccn(C2OC(CO)C(O)C2(F)F)c(=O)n1 (stereo not drawn) + Cc1[nH]c2ccc(F)cc2c1-c1nc2c3cccnc3c3ncccc3c2[nH]1	13.8%
COc1cc(C2c3cc4c(cc3C(OC3OC5COC(C)OC5C(O)C3O)C3COC(=O)C23)OCO4)cc(OC)c1O (stereo not drawn) + CN(C)c1ccc(Nc2c3ccc(NC(=O)CCN4CCCC4)cc3nc3cc(NC(=O)CCN4CCCC4)ccc23)cc1	66.3%

Attention now shifts to the item below.
GET /values?readout=viability, T/C&item= Nc1ccn(C2OC(CO)C(O)C2(F)F)c(=O)n1 (stereo not drawn) + CN(C)c1ccc(Nc2c3ccc(NC(=O)CCN4CCCC4)cc3nc3cc(NC(=O)CCN4CCCC4)ccc23)cc1 33.7%

---

# Test system: 777334-354-R2-J4-PDC tumor spheroids with HUVEC/MSC, viability
# PROTOCOL DESCRIPTION: Anticancer human tumor 777334-354-R2-J4-PDC cell line growth inhibition [GQUAD];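 also: spheroids exposed to compounds for 7 days before readout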
# MEASUREMENT PARAMETERS: second compound 1 µM; first compound 10 µM; active compounds read low
The label is criterion met for viability, T/C below 40% and criterion not met for viability, T/C equal to or exceeding 40%.

is_below(viability, T/C, 40%) for CC1COCCN1c1cc(-c2ccnn2C)c2ccnc(-c3ccn[nH]3)c2n1 (centres undefined) + CN(C)c1ccc(Nc2c3ccc(NC(=O)CCN4CCCC4)cc3nc3cc(NC(=O)CCN4CCCC4)ccc23)cc1 ? criterion met

is_below(viability, T/C, 40%) for CC1COCCN1c1cc(-c2ccnn2C)c2ccnc(-c3ccn[nH]3)c2n1 (centres undefined) + Cc1[nH]c2ccc(F)cc2c1-c1nc2c3cccnc3c3ncccc3c2[nH]1 ? criterion met

is_below(viability, T/C, 40%) for O=C(c1cc(Cc2n[nH]c(=O)c3ccccc23)ccc1F)N1CCN(C(=O)C2CC2)CC1 + Cc1[nH]c2ccc(F)cc2c1-c1nc2c3cccnc3c3ncccc3c2[nH]1 ? criterion not met

is_below(viability, T/C, 40%) for COc1cccc2c1C(=O)c1c(O)c3c(c(O)c1C2=O)CC(O)(C(=O)CO)CC3OC1CC(N)C(O)C(C)O1 (centres undefined) + CN(C)c1ccc(Nc2c3ccc(NC(=O)CCN4CCCC4)cc3nc3cc(NC(=O)CCN4CCCC4)ccc23)cc1 ? criterion met

is_below(viability, T/C, 40%) for COc1ccc([C@@H](O)c2cc(-c3ncnc4cc(N5CCOCC5)ccc34)c(F)cc2Cl)nn1 + CN(C)c1ccc(Nc2c3ccc(NC(=O)CCN4CCCC4)cc3nc3cc(NC(=O)CCN4CCCC4)ccc23)cc1 ? criterion met

is_below(viability, T/C, 40%) for CC(=O)O[C@H]1C(=O)[C@@]2(C)[C@H]([C@H](OC(=O)c3ccccc3)[C@]3(O)C[C@H](OC(=O)[C@H](O)[C@@H](NC(=O)c4ccccc4)c4ccccc4)C(C)=C1C3(C)C)[C@]1(OC(C)=O)CO[C@@H]1C[C@@H]2O + Cc1[nH]c2ccc(F)cc2c1-c1nc2c3cccnc3c3ncccc3c2[nH]1 ? criterion met

is_below(viability, T/C, 40%) for C=CC(=O)N1CCN(c2nc(=O)n(-c3c(C)ccnc3C(C)C)c3nc(-c4c(O)cccc4F)c(F)cc23)C(C)C1 (centres undefined) + Cc1[nH]c2ccc(F)cc2c1-c1nc2c3cccnc3c3ncccc3c2[nH]1 ? criterion not met

is_below(viability, T/C, 40%) for CC(=O)O[C@H]1C(=O)[C@@]2(C)[C@H]([C@H](OC(=O)c3ccccc3)[C@]3(O)C[C@H](OC(=O)[C@H](O)[C@@H](NC(=O)c4ccccc4)c4ccccc4)C(C)=C1C3(C)C)[C@]1(OC(C)=O)CO[C@@H]1C[C@@H]2O + CN(C)c1ccc(Nc2c3ccc(NC(=O)CCN4CCCC4)cc3nc3cc(NC(=O)CCN4CCCC4)ccc23)cc1 ? criterion met

is_below(viability, T/C, 40%) for Cc1cccc(N(C)C(=O)C2C(O)CCN2c2nc(C)cc(C(F)(F)F)c2C#N)c1 (centres undefined) + Cc1cnc(CNC(=O)c2c(=O)c3ccc(N4CCCN(C)CC4)nc3n3c2sc2ccccc23)cn1 ? criterion not met

is_below(viability, T/C, 40%) for Cc1cccc(N(C)C(=O)C2C(O)CCN2c2nc(C)cc(C(F)(F)F)c2C#N)c1 (centres undefined) + Cc1[nH]c2ccc(F)cc2c1-c1nc2c3cccnc3c3ncccc3c2[nH]1 ? criterion not met
